- Experiment notes: soluble fraction after stress (log2 fold change); higher = more stays soluble; pooled small domains, quantitative proteomics;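 note: 20 min heating vs room temperature control held 20 min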
- Applied conditions: stress: 75 degC
Overview of recorded soluble fraction (log2) for various sequences

# Residues, soluble fraction (log2)
records = [
    ("HMKTKMTPELTTVIEAQIQKEWSPEQISGWLKKTHPVSVSHQRIYQHIQADRQQGGTLHQHLRQAK", 0.00699),
    ("HMPESETIMVDVKGAVQSEGVYELPSTARVNDAIEAAGGFSDQADKKSVNLAQKLSDEAVVYVASQGENV", 0.76),
    ("HMIGERIKRARAAAGLSMQALGKQVGISANMVKKYEHDQSMPSSGVLLKLATALSVRTEYFFRPA", -1.38),
    ("HMQYQIITENGKQYYLYTVQKSEGFYSIGKRFEITNDEIIKANPEAALGLKLGQVLKIPVYK", -2.4),
    ("HMDMTPEEFLAWARHKPFGDPFPKTQTVTFLVPLLGVSRTNIFTWISGKVNPSKTSLLLMEALKRENR", -0.493),
    ("HMDATGDPIADRILQALQLGELTRTQVNNVFQRHLAAARISQALNFLRSLKRADMRMEETAGRSGEVWFAI", -0.454),
    ("HMITMADKIDTALSEMAANNEKINVSQVAKRLGISNSAIYKFNPEKIPDIQTAQKRQKHKAEAIAVGTEN", -0.0393),
    ("HMAQSEDLMVMAQRILGGPEAQSFFQAEATRQGLAGFLPEPIPDFLQRLERKLSGSVGSATAHAMVAQTMG", 0.0569),
    ("HMVNDDTIAATEAEILALLADKHRHHITELNSIRRPYEQIDAALSSLINEEKIFQEDGMLFV", 0.543),
    ("HMAAYRLIPLGNSNKDFETYQEAIQYMRDKLDESSKAFEEGKQNWVYSGRVYGVPWSDGRTTFTVDLVPKV", 0.594),
    ("HMDVNPETLSYYIERADISLDELRTSVKGIDLFLTGEKQPTFNQISNIAKKLNIPTGLLLINKPIEI", -0.645),
    ("HMNTGFPIILETSDAANLTVGAPIMYRGVEVGKIRNMELNSLGDRVLIHILIGHKYQHLVRQNSEFWFSS", -4),
    ("HMQGYELKMYVTPDTKYSVAVYDAKNEMVSYTMGFSAKAPFGQEGEVLETVKLEFDKLAVGNYELKYWI", 0.258),
    ("HMDSLQDFAYEEIKKRIQNGEYAPGTKLNTQEISDSLGISRSPVLAAINRLIALGLVEATPRKGTTVA", -0.116),
    ("HMPASVEYIRLAAEQMTGQQVTIIEQPGNYAFILRIHLNDIYSLDLAALRARIDELKPAHLTYTVEQYD", -2.86),
    ("HMKGKWKPIILWQLSKAPQSLSGLRHSIAGISQKMLIQHLNELIHFGFVVRTTFEGYPLKVEYDLTDRGR", -0.196),
    ("HMAVPAALVQAWLELSRRMVAGTQDVGERFAEEARKMHYGETEDRGIRGQATLTEVRDLLDEGIEVLPLLL", -0.439),
    ("HMGKRGKEMQTAVLAILRASDRPYSAYELLESLKDIYPKIAPPTVYRALAALTQRGQIRRLESLNAFI", -0.221),
    ("HMILNDRSELLDVVKRVIAANPASVADYRKGKKKVLGFLVGQAMKETKGQADPRILNELFLQELGEN", 0.108),
    ("HMGGVSTDKPLNWDADGTSKLTQEQIDYLRSTYDLSDMSKQDYYDLMADLTNMNAISIKDVISQYVK", -0.0294),
    ("HMPPALTELLSVRTNASGTIDYLLPDRSAGLRVENGSKYSGMVPDSIYRLVAIYEIKDAKEPSAYIYTI", -0.0495),
    ("HMDGIGLRVRMIREGVGLTQKQLAEHLGMQRTALVQVEAGSRKLSASELIGVARFFNITVEQFLDPEK", -3.5),
    ("HMNIEEQVVAEVLVKDFMKQLTPRDIHILELRKNGYTYQEIAGQLGYHTHSAVKKRVDRLAEQWLAYTQGH", -2.26),
    ("HMYEGNEFSSTGMFREDILAITAVHPMREDAVTELLARSNESEETLEMMIDEELLRRVAYGNHNYYMRRFR", -0.611),
    ("HMESTLNYSQFLSLVNEDRVAEVVIQGKELYVTDVNRSRFKVYAPPDPELIGLLRQKRVIISAKP", -0.56),
    ("HMKMSLKENLLELLQKSSGEFLSGERAAETLGVSRTAVWKAVTSLKNEGYNIESVTNRGYRFS", -0.34),
    ("HMEEITLIAEDEGLRLDTWLTDKLKDYSRSYIQKLMEDELVLVNGKARKANYRIKTGDEIHVSIPEPE", -0.0663),
    ("HMLTYPEHVRLRMIELRKTRSLSQSEFGTYLGLSYQTISSLELGRHEWSLAHIQTALLRFELPPNYF", -4.27),
    ("HMGLNVSYRMDGENVVETIIFSGATMIRTVTPTGTMTIKTIENGSTSTAKVNADYSVYKKIYEAQY", -2.69),
    ("HMNNNIFVYPNPSINYINIDSDEEIWKLEIIQMSGEKINILPFSKRIDISFLSKGLYILNFNNYYIKFIK", -0.136),
    ("HMEAKSSTKALLDVVLGRNGVSTANVAKSLNISVQNASTRLKKLSSEGVIMRSEVSSPTGGIEFIYS", 0.109),
    ("HMDVMNEIQQKAFDIYIQSASLKNDFTPISERALAKKLHDMGLKSSMSAIGRWKKKFGWVQSLQNKVTLA", -0.173),
    ("HMATETMGMIIRRLRREHGLTQEELAASIGVTAQAVSKWEKDLGMPDISQIVPLAGAFNVRTDVLFGLE", -2.65),
]

----------
- Experiment notes: soluble fraction after stress (log2 fold change); higher = more stays soluble; pooled small domains, quantitative proteomics
- Applied conditions: stress: 75 degC
Overview of recorded soluble fraction (log2) for various sequences
Property measured: soluble fraction (log2)

# Residues, Property measured, Endpoint value
rows = [
    ("HMKVTQDIIFKRNGEEIKSKVLEITPDLIIYIDYSRADNIAREINISEVNMIIYKNGTSEIFSRPEE", "soluble fraction (log2)", -1.69),
    ("HMTPKVAVPSFVGWKFEDVERQLGTMGLIRGKVDNHPSEEYSEGRVIWQSVLGEVEKGKVIDFWVSTGPE", "soluble fraction (log2)", 0.0612),
    ("HMKLIIVPNLVGQSRRSVEISLQQIGLRIDTVYTEFNPDYPKGTVAWQFPKSGDHIKKGMGLQITVSQG", "soluble fraction (log2)", -0.391),
    ("HMLGWEDVIQFEEVKGYGQHIWRDGNHLYYVTEEGGIAPQRVVYELPNELFALLESGERTQLEILSKLQ", "soluble fraction (log2)", -2.51),
]

----------
Overview of recorded soluble fraction (log2) for various sequences
- Experiment notes: soluble fraction after stress (log2 fold change); higher = more stays soluble; pooled small domains, quantitative proteomics
- Applied conditions: stress: 75 degC

# Residues, soluble fraction (log2)
records = [
    ("HMENFSTLFSRLKEERGLSNKQISSFTGAPIKEVKKWESGMGIPTEKRIVAALEGILGSEISKAI", -0.125),
    ("HMNATLEQLTQREREIAVLMAEGLTNAQIGSRLNVSMASVKAHLSHIFTKLGVDNRVSAAMMVL", -0.868),
    ("HMQIMVVDEADRMLDMGFIPDIERIFQLTPFTRQTLFFSATMAPEIERITDTFLHSPERIEVAR", -0.255),
    ("HMENDPYEILGIARSASDDEIKAKYRALTRENHPDILMAKGVPQEFIDLANEKMAVINAAYDKIEKER", 0.407),
]

----------
- Experiment notes: soluble fraction after stress (log2 fold change); higher = more stays soluble; pooled small domains, quantitative proteomics
- Applied conditions: stress: 75 degC
Output schema: class label derived from soluble fraction (log2). Mapping: bottom range (below -1), center range (-1 to below 0.03), top range (0.03 or more)

# Residues, Assigned class
rows = [
    ("HMAFIEIMTEGDADGRGFQYPIPTYSITRDFDWSETENNKLLFEMTAKYGTPYFSNYINSDMEPSDV", "bottom range"),
    ("HMQDEREEIAVEDVVGMPLWQARKVIADQGFRVLDDGAGDIVIAQMPSGGGKLIEGGQVMLYTYTD", "top range"),
    ("HMQTGYHVRITASTLNVRRDHSASSAVATQVRRGEVYTIVDEYNNGGTLWGKLKSGAGWIALKYTQS", "bottom range"),
    ("HMQKADFDYGDYVDLGLAMGRQSRQLREAVGIKLGIGYANSKRFYQRLQTFGISLAELKQAVEEAENDQQN", "bottom range"),
    ("HMEKLIRIKRLIKQLNEYRDSYYNEARPVVSDAAYDKLFDELSELEKETGVVYANSPTQTVG", "top range"),
    ("HMTPVEVNARGVHVDFSKGGILLEDVVRHLILEALRASEWKRGPAAQLLGISKETLRYRMEKYRLYPP", "bottom range"),
    ("HMAKDDFMSFVKAVWPEFIEGAHHRVIAQKFNDLATGKITRLIVNMPPRHTKSEFASYLLPAW", "top range"),
    ("HMRLATSELVYRIRALIRDQELQPGERLGSERALAQSLGISRSDLRMALAVLEASHEVIRKIGRAGGIVVS", "bottom range"),
    ("HMTGDIGAEAAKAAALAHAGVTESQTAKMKVDRDWDDGRLEYDVEFDVGRTEYEYTIDGVTGAVLEYEQDI", "center range"),
    ("HMSALAQDGDLVQLQGAGYKSHILRLKAGEVLQTHRGVIQHDAVIGQPWGARLQSHTGSPFYLFQPGLADL", "center range"),
    ("HMDGIDALEPLMRRVFEALPQRRSMTIERAAVAAGLDEESVKIALVRLQLEGYVANDERGWHRSKSPH", "bottom range"),
    ("HMRTTTGSEGMIGSIGKAKTDLAPDGKIFIHGELWDATSSSPVSAGQKIEVTQIEGLKLHVKPVL", "top range"),
    ("HMSTFAQNLRALMEKRGVSQNELARSAGLTQSAINKILTGKTKQPGIDTTEAIARVLNVSVAQLIYT", "bottom range"),
    ("HMILNNAKINTELNSLAEFTQRSLDSNTSEIGFYDYKKISYIASFATMKTTNWNVIIRAPINEFMGTVN", "top range"),
    ("HMVLIQNEDVKDISNYPLLSSVPVFDVFNNKMIIPTFNKDSFNPLIYNFNFNSKRRLIYRVDNTNYLIVIK", "top range"),
    ("HMLFQGDTPAENIILEILSKNGTTASDSIIKQSGLSVSDFNQAATMLEIKGLISNNGGNIWSL", "center range"),
    ("HMQRSVKNNDTVQVHYTGKLTNGQIFDSSIDKQPLEFQLGQGQIIPGFEKGLIDMTVSEKKTITIPEAEAY", "top range"),
    ("HMTDSQLVEAENHVALRQAMAHLGPRERELIGLYYFEEQSQTQIAARFGVSQMQVSRWLTSAVGRIRGQMA", "top range"),
    ("HMGRWQPSTSAKQHGESALLLERLLHLERLTVSEAFHVLTINHRLNLSLPEYRSLLAVVQLPK", "bottom range"),
    ("HMKEILTNESIIQFVKDKVSEEQIIYKINNSPIDFKLDVNSMVSLAKQNVSSTIIIAMENAMNN", "bottom range"),
    ("HMGSKQVSVPDVRNLDYERASQQLREAGFVVGDVLRIRDDRAPAGTVIAQSPAAPALVPENARVSLLVSSG", "top range"),
    ("HMSDRFVRIVMNDGTVKLGQMISEDADFIRLKTNNLGELNIPKYLVLDMMDLTRSEYVRLSISNAG", "center range"),
    ("HMPPFDDILAEYYEPLYRHVRRMVVSHDDAKDVMQEAMLRIFQGLDGLKDPSAVRTWVWRIATNEALRH", "center range"),
    ("HMERMTSTEILTRDFLTTNSKIVKKSTIEELSEIIHVSPATIIRTVKKMGYSGFSEYKNELINQ", "bottom range"),
    ("HMKFTPPTLEQIKNEMLLKTDEYNADIQSDRFFTYYDSNGWMVGKNKMKKFLVSLVAVFAATSA", "center range"),
    ("HMHQLQLDSRSRLHMTGVIEVESFDEATIVLTTTRGTLIVRGENLHLQLLRLDGGEVLVDGTVDSLSYE", "bottom range"),
    ("HMDKELILLWDRVKSKVWQMDIQDSQVANWFQRNYHLTVRLRDFDPPVPPDKFTAEQLASFIKDIERHT", "bottom range"),
    ("HMEDSHIYPVSFNGKMRFKLELPVSMNKKEIEEVVLQHEDAQKWLNGQNPKKVIVVPKRIINIV", "center range"),
    ("HMESPLNPTDVRRAAMDLLARREHGVEELRLKLKRRFGREEDFETIATEQLQRLVDEDLLSDTRF", "center range"),
    ("HMQVSDEGAIQLLVQKAIEENPQAIEAFRGGKTSALGPVVGWVMKQSKGAANPTMVKTLLEKAI", "top range"),
]
